Hello, the source for this data is the supplement of paper PMC11061612, in case you need it.

- Test system: ES-2 (Ovarian Carcinoma)
- Test: combination Emax (second highest fraction inhibited in the dose matrix, 72 h); higher = more inhibition; extreme values may be limits of the assay
Where combination Emax equals or exceeds 0.4, the correct label is criterion met; where it does not, the label is criterion not met.

Kindly determine if combination Emax recorded for CCN(CCO)CCCOc1ccc2c(Nc3cc(CC(=O)Nc4cccc(F)c4)[nH]n3)ncnc2c1 [AZD2811] + O=C(c1cc(Cc2n[nH]c(=O)c3ccccc23)ccc1F)N1CCN(C(=O)C2CC2)CC1 [Olaparib] (first compound max 1 µM, 7x7, partner max 10 µM) is above or exactly 0.4.
criterion not met

Kindly determine if combination Emax recorded for Cn1cnc2c(F)c(Nc3ccc(Br)cc3Cl)c(C(=O)NOCCO)cc21 [Selumetinib] + CC(C)n1c(=O)n(C)c2cnc3cc(F)c(-c4ccc(OCCCN5CCCCC5)nc4)cc3c21 [AZD1390] (first compound max 10 µM, 7x7, partner max 0.3 µM) is above or exactly 0.4.
criterion not met

Kindly determine if combination Emax recorded for NC1(C(=O)N[C@@H](CCO)c2ccc(Cl)cc2)CCN(c2ncnc3[nH]ccc23)CC1 [Capivasertib] + Cn1cnc2c(F)c(Nc3ccc(Br)cc3Cl)c(C(=O)NOCCO)cc21 [Selumetinib] (first compound max 10 µM, 7x7, partner max 10 µM) is above or exactly 0.4.
criterion met

Kindly determine if combination Emax recorded for CN(CCO)CC[C@H](CSc1ccccc1)Nc1ccc(S(=O)(=O)NC(=O)c2ccc(N3CCC([C@@H](O)c4ccccc4-c4ccc(Cl)cc4)CC3)cc2)cc1S(=O)(=O)C(F)(F)F [AZD4320] + C[C@@H](Nc1cc(F)cc(F)c1)c1cc(C(=O)N(C)C)cc2c(=O)cc(N3CCOCC3)oc12 [AZD8186] (first compound max 1 µM, 7x7, partner max 3 µM) is above or exactly 0.4.
criterion not met

----------
Reported Bliss excess values for a set of molecules
- Tested on: NCI-H1623 (Lung Adenocarcinoma);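 also: after 72 h of two-drug dosing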
- Test: Bliss excess, mean over the matrix (fraction); higher = more synergy

{"columns": ["Molecule", "Reading"],
 "data": [
  ["Cn1cnc2c(F)c(Nc3ccc(Br)cc3Cl)c(C(=O)NOCCO)cc21 [Selumetinib] + CCN(CCO)CCCOc1ccc2c(Nc3cc(CC(=O)Nc4cccc(F)c4)[nH]n3)ncnc2c1 [AZD2811] (first compound max 10 µM, 7x7, partner max 1 µM)", 0.0134],
  ["C[C@@H]1COCCN1c1cc(C2([S@](C)(=N)=O)CC2)nc(-c2ccnc3[nH]ccc23)n1 [AZD6738] + O=C(c1cc(Cc2n[nH]c(=O)c3ccccc23)ccc1F)N1CCN(C(=O)C2CC2)CC1 [Olaparib] (first compound max 10 µM, 7x7, partner max 10 µM)", -0.0325],
  ["NC1(C(=O)N[C@@H](CCO)c2ccc(Cl)cc2)CCN(c2ncnc3[nH]ccc23)CC1 [Capivasertib] + CC(=O)c1c(C)c2cnc(Nc3ccc(N4CCNCC4)cn3)nc2n(C2CCCC2)c1=O [Palbociclib] (first compound max 10 µM, 7x7, partner max 10 µM)", -0.0156],
  ["CC(=O)c1c(C)c2cnc(Nc3ccc(N4CCNCC4)cn3)nc2n(C2CCCC2)c1=O [Palbociclib] + Cc1c2c(nn1C)CSCc1cc(n(C)n1)CSc1cc(c3ccccc3c1)OCCCc1c(C(=O)O)n(C)c3c-2c(Cl)ccc13 [AZD5991] (first compound max 10 µM, 7x7, partner max 1 µM)", -0.0321],
  ["COc1nnc2ccc(N3CCC(c4ccc(OCCN5CCN(C)C(=O)[C@H]5C)cc4)CC3)nn12 [AZD5153] + CC1(C)CCC(CN2CCN(c3ccc(C(=O)NS(=O)(=O)c4ccc(NCC5CCOCC5)c([N+](=O)[O-])c4)c(Oc4cnc5[nH]ccc5c4)c3)CC2)=C(c2ccc(Cl)cc2)C1 [Venetoclax] (first compound max 1 µM, 7x7, partner max 1 µM)", -0.0448],
  ["CN(CCO)CC[C@H](CSc1ccccc1)Nc1ccc(S(=O)(=O)NC(=O)c2ccc(N3CCC([C@@H](O)c4ccccc4-c4ccc(Cl)cc4)CC3)cc2)cc1S(=O)(=O)C(F)(F)F [AZD4320] + C[C@@H]1COCCN1C2=NC(=NC(=C2)C3(CC3)[S@](=N)(=O)C)C4=C5C=CNC5=NC=C4 [AZD6738] (first compound max 1 µM, 7x7, partner max 10 µM)", -0.0101]
]}

Note: attention shifts to another entry.
// query Bliss excess value for entry Cn1cnc2c(F)c(Nc3ccc(Br)cc3Cl)c(C(=O)NOCCO)cc21 [Selumetinib] + C=CCn1c(=O)c2cnc(Nc3ccc(N4CCN(C)CC4)cc3)nc2n1-c1cccc(C(C)(C)O)n1 [AZD1775] (first compound max 10 µM, partner max 1 µM)
-0.0223
